Source: the C3SDB collision cross section collection

Conditions: [M+H]+; instrument: DT; single field, calibrated with ESI Low Concentration Tuning Mix (Agilent)

[
  {
    "Molecule": "Cc1c[nH]c(=O)[nH]c1=O",
    "collision cross section (N2)": "122.1 Å²"
  },
  {
    "Molecule": "NCCC[C@H](N)C(=O)O",
    "collision cross section (N2)": "127.7 Å²"
  },
  {
    "Molecule": "Cc1cc2nc3c(=O)[nH]c(=O)nc-3n(C[C@H](O)[C@H](O)[C@H](O)CO)c2cc1C",
    "collision cross section (N2)": "188.5 Å²"
  },
  {
    "Molecule": "O=C(O)Cc1c[nH]c2ccc(O)cc12 [5-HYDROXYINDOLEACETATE]",
    "collision cross section (N2)": "140.9 Å²"
  },
  {
    "Molecule": "CSc1ncnc2nc[nH]c12",
    "collision cross section (N2)": "129.8 Å²"
  },
  {
    "Molecule": "NC(CCO)C(=O)O (configuration not stated)",
    "collision cross section (N2)": "125.9 Å²"
  },
  {
    "Molecule": "O=c1[nH]c(=O)c2ncn([C@@H]3O[C@H](CO)[C@@H](O)[C@H]3O)c2[nH]1",
    "collision cross section (N2)": "162 Å²"
  }
]
